Biological target: Human recombinant MAO-B (Homo sapiens, UniProt P27338)
Construct: Full-length human recombinant MAO-A and MAO-B proteins were both expressed in Baculovirus infected Sf 9 cells; FLAG (N); host or cells: Baculovirus-infected Sf9 insect cells
Sequence (P27338 1-520): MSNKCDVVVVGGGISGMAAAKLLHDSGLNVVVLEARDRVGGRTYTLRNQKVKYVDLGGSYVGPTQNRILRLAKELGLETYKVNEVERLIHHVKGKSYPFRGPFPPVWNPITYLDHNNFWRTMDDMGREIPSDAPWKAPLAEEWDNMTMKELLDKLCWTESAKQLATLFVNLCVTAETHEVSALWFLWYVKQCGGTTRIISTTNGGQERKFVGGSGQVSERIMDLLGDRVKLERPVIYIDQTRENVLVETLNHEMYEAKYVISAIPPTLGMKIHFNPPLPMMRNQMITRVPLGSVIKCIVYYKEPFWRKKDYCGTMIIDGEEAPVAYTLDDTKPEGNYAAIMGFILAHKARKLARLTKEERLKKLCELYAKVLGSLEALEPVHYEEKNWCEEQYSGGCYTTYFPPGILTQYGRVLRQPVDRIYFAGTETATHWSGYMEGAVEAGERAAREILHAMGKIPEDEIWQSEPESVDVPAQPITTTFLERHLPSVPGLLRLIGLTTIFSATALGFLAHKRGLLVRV
Assay: Human recombinant MAO-B inhibitory activity assay (Promega MAO-Glo)
Format: biochemical
Conditions: human recombinant enzyme expressed in Sf 9 cells; substrate benzylamine 40 µM; 15 min pre-incubation, 60 min reaction, room temperature; 10 concentrations, duplicate wells
Counter-ions that a name gives are not always drawn.
Readout name: IC50 (µM)
Number only, in µM; omit the unit.

{"Molecule": "NC(=O)[C@@H]1CC[C@H](c2ccc(-c3cccc(C(F)(F)F)c3)cc2)N1 [Compound 4, hydrochloride]", "Readout name": "IC50", "Measured result": 0.477}

Which IC50 is listed for NC(=O)[C@@H]1CC[C@H](c2ccc(-c3ccccc3)cc2)N1 [Compound 16, hydrochloride] ?
7.53

Which IC50 is listed for NC(=O)c1ccc(-c2ccc([C@H]3CC[C@@H](C(N)=O)N3)cc2)cc1 [Compound 14, hydrochloride] ?
0.991

Which IC50 is listed for `CCN1[C@@H](c2ccc(-c3ccc(C(F)(F)F)cc3)cc2)CC[C@H]1C(N)=O` ?
0.562

Which IC50 is listed for O=C(O)[C@@H]1CC[C@H](c2ccc(-c3ccc(F)cc3)cc2)N1 [Compound 31, hydrochloride] ?
0.533

Which IC50 is listed for NC(=O)[C@@H]1CC[C@H](c2ccc(-c3cccc(F)c3)cc2)N1 [Compound 5, hydrochloride] ?
3.05

Which IC50 is listed for COc1cc(-c2ccc(C(F)(F)F)cc2)ccc1[C@H]1CC[C@@H](C(N)=O)N1 [Compound 20, hydrochloride] ?
0.998

Which IC50 is listed for NC(=O)[C@@H]1CC[C@H](c2cc(F)c(-c3ccc(C(F)(F)F)cc3)c(F)c2)N1 [Compound 22, hydrochloride] ?
0.433

Which IC50 is listed for NC(=O)[C@@H]1CC[C@H](c2c(F)cc(-c3ccc(C(F)(F)F)cc3)cc2F)N1 [Compound 24, hydrochloride] ?
0.773

Which IC50 is listed for COc1ccc(-c2ccc([C@H]3CC[C@@H](C(N)=O)N3)cc2)cc1 [Compound 18, hydrochloride] ?
3.57

Which IC50 is listed for N#Cc1cc(-c2ccc(C(F)(F)F)cc2)ccc1[C@H]1CC[C@@H](C(N)=O)N1 [Compound 21, hydrochloride] ?
1.36

Which IC50 is listed for NC(=O)[C@@H]1CC[C@H](c2ccc(-c3ccc(OC(F)(F)F)cc3)cc2)N1 [Compound 3, hydrochloride] ?
0.199

Which IC50 is listed for CNC(=O)[C@@H]1CC[C@H](c2ccc(-c3ccc(C(F)(F)F)cc3)cc2)N1 [Compound 27, hydrochloride] ?
7.53

Which IC50 is listed for N#Cc1cc([C@H]2CC[C@@H](C(N)=O)N2)ccc1-c1ccc(C(F)(F)F)cc1 [Compound 23, hydrochloride] ?
2.53

Which IC50 is listed for N#Cc1ccc(-c2ccc([C@H]3CC[C@@H](C(N)=O)N3)cc2)cc1 [Compound 11, hydrochloride] ?
1.34
